Entry source: the Human Domainome abundance scans (Beltran et al. 2025)

Listed below: abundance fitness values for each entry.
B1: F-BAR and double SH3 domains protein 1, residues 467 to 528; numbered along this chain, Q86WN1 (parent)
chain: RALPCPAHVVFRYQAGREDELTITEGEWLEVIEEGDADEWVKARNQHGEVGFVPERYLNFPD

Variants of: B1
Test: abundance fitness (aPCA) (normalised: wild type 0, dead -1); higher = more abundant; growth selection in yeast, the domain comes from the species named
Details: Homo sapiens
// return a plain number; no unit text

Some variants with known abundance fitness results, for comparison:
# Mutant Name, abundance fitness
measured = [
    ("R12G", 0.085),
    ("V10I", -0.021),
    ("W28I", 0.026),
    ("A43D", -0.793),
    ("L29R", -0.728),
    ("A37V", 0.052),
    ("E18N", -0.086),
    ("K42D", -0.664),
]

Exercise: Look up abundance fitness for this variant: V10G
Key: -0.179

Exercise: Look up abundance fitness for this variant: V31N
Key: -0.947
